Reference for the values: a melting point compilation (Tetko et al.; mined from patent text by program, amines drawn as free bases though some values may be those of a salt)

READOUT_LABEL: melting point

# annotated cases, reported melting point shown
> print(dat)
                                   molecule         result
1  Cc1ccc(S(=O)(=O)OC[C@H]2CC[C@H](C#N)CC2)cc1    84 to 85 °C
2                   CCOC(=O)NN=C(C)c1ccccn1         113 °C
3  CCCc1c(C(=O)OCC)c2c3c(ccc2n1C)OC1c2ccc(SC)cc2CCN1C3 (stereo not given)  139 to 143 °C
4  CCCS(=O)(=O)Nc1ccc(C(=O)c2nc(-c3cccc(C(=O)O)c3)c3ccccn23)cc1OC         145 °C

Exam item: State its melting point: Oc1c(Cl)cc(-c2ccco2)cc1Cl
Marked response: 68 to 70 °C

Exam item: State its melting point: Cc1cc2c(cc1S(N)(=O)=O)S(=O)(=O)NC(c1cccnn1)=N2
Marked response: 330 to 335 °C

Exam item: State its melting point: Cn1c(=O)n(Cc2ccc(C#N)cc2)c(=O)c2nc(-c3ccc(/C=C/C(=O)O)cc3)[nH]c21
Marked response: > 300 °C

Exam item: State its melting point: COC(=O)c1csc(NC(=O)C(CC2CCCC2)c2ccc(Cl)cc2)n1 (stereo not given)
Marked response: 156 to 157 °C

Exam item: State its melting point: CCOc1ccc(CC(CO)NC(=O)c2ccnc(Br)c2)cc1OCC (stereo not given)
Marked response: 97 to 99 °C

Exam item: State its melting point: CCOCCc1nnc(S)n1N
Marked response: 123 to 124 °C

====

Each entry below carries its recorded melting point.

# annotated cases, reported melting point shown
> print(dat)
                                   compound  readout.label         result
1  O=C(O)c1cc2cccc(OCC3CO3)c2o1 (configuration not stated)  melting point  117 to 119 °C
2  CCSc1cc(C)nc(SCC)c1NC(=O)CCCCCSc1nc2ccccc2[nH]1  melting point  139 to 142 °C
3  CCCNC(=O)CCCCCn1c(CCC)nc2c(N)nc3ccccc3c21  melting point  139 to 141 °C
4  CC1CCc2c(c(OCc3ccccn3)nn3c(-c4ccccc4)nnc23)C1 (configuration not stated)  melting point  152 to 154 °C
5        O=C(C=Cc1ccccc1)NCc1ccc(C(=O)O)cc1  melting point  238 to 239 °C

Exam item: State its melting point: O=C(COc1ccc([N+](=O)[O-])cc1)OCCOC(=O)COc1ccc([N+](=O)[O-])cc1
Marked response: 118 to 121 °C

Exam item: State its melting point: CS(=O)(=O)Nc1ccc(N2CCN(Cc3ccc(-c4ccccc4)o3)CC2)cc1
Marked response: 178 °C

Exam item: State its melting point: O=[N+]([O-])c1cccc(-n2cnc3c([N+](=O)[O-])cccc32)c1
Marked response: 159 to 161 °C

Exam item: State its melting point: Nc1ncc(C#Cc2ccc(Cl)cc2)c(N[C@H]2CC[C@H](O)CC2)n1
Marked response: 215 to 218 °C

Exam item: State its melting point: CCCCCCC(CC(=O)Nc1cc(C(N)=O)ccc1C(C)(C)C)c1ccc(OC)cc1OC (configuration not stated)
Marked response: 152 to 153 °C

Exam item: State its melting point: CCOC(=O)c1cnc2ccc(Oc3ccccc3)nc2c1Cl
Marked response: 133 to 137 °C
